Subject of test: UniProt P25101
Sequence (P25101 21-427): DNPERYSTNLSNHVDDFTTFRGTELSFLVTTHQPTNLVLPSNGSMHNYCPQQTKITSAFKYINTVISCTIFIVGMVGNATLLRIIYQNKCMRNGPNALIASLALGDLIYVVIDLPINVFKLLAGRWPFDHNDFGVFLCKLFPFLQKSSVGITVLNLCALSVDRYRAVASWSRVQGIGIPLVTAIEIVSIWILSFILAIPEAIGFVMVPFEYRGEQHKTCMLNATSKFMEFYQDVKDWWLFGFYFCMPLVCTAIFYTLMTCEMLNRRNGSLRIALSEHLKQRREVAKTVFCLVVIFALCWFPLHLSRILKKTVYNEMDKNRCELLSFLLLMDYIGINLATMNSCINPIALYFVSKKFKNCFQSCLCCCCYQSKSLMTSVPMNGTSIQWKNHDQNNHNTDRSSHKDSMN
Method summary: Test on Inhibition of Binding of Endothelin (ET-1) to Human ETA Receptor
Quantity measured: IC50 (nM)
Provide only the numeric value, understood in nM.

Record request: IC50 value, item COc1ccccc1Oc1c(NS(=O)(=O)C=Cc2ccccc2)nc(-c2ncccn2)nc1OC 3.1
